# System: genotype 1a-H77 subgenomic replicon cell line
# ASSAY_COMMENT: microbe, parasite or virus in culture
# Type: cell-based, HCV
# CONDITION_LABEL: Hepatitis C virus, read-out: EC50 1a
pEC50: −log10 of the molar value.
Reported pEC50 values for a set of compounds

CHEM_SMILES: COc1c(C#Cc2ccc(NS(C)(=O)=O)c(Cl)c2)cc(N2CCC(=O)NC2=O)cc1C(C)(C)C
RESULT: 6.00 to 7.00

# ---- query compound ----
QUERY: # get_value(readout= pEC50, system= genotype 1a-H77 subgenomic replicon cell line) for `COc1cc(NS(C)(=O)=O)ccc1C(=O)Nc1cc(-n2ccc(=O)[nH]c2=O)cc(C(C)(C)C)c1OC`
RESULT: 6.00 to 7.00

###

# TARGET_OR_TEST_SYSTEM: HCV polymerase 1B (Δ21 NS5B, BK) (Hepatitis C virus genotype 1b, UniProt P26663)
# Construct: 20 to 50 nM Δ21 NS5B
# Sequence (P26663 2420-2989, stated change not applied): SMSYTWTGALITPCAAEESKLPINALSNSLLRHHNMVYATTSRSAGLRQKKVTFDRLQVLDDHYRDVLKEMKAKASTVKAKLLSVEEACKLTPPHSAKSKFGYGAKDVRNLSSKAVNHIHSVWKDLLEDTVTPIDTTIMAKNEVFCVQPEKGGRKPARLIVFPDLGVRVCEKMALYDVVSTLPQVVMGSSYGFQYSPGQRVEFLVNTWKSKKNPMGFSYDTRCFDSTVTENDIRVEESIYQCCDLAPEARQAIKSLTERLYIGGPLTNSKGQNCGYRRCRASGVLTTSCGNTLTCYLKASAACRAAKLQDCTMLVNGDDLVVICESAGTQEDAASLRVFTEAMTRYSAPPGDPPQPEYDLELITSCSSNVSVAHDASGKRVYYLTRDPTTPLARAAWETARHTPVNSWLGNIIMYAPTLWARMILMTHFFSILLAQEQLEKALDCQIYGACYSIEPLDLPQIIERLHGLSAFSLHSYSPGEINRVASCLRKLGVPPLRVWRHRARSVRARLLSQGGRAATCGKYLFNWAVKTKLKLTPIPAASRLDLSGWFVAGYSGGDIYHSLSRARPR
# ASSAY_COMMENT: biochemical
pIC50: −log10 of the molar value.
READOUT_TYPE: pIC50

Example results:
CHEM_SMILES: COc1c(C(=O)Nc2ccc(NS(=O)(=O)c3c(C)noc3C)cc2)cc(N2CCC(=O)NC2=O)cc1C(C)(C)C
pIC50: 7.00 to 8.00

CHEM_SMILES: CC(C)(C)c1cc(N2CCC(=O)NC2=O)cc(C(=O)Nc2ccc(NS(=O)(=O)CCN3CCOCC3)cc2)c1O
pIC50: > 8.00

CHEM_SMILES: COc1c(C(=O)Nc2ccc(N(C(=O)C(C)C)S(C)(=O)=O)cc2)cc(N2CCC(=O)NC2=O)cc1C(C)(C)C
pIC50: < 6.00

CHEM_SMILES: CC(C)(C)c1cc(N2CCC(=O)NC2=O)cc(C(=O)Nc2ccc(CC(=O)O)cc2)c1O
pIC50: 6.00 to 7.00

CHEM_SMILES: COc1c(C(=O)Nc2ccc(N(C(=O)OCC(C)C)S(C)(=O)=O)cc2)cc(N2CCC(=O)NC2=O)cc1C(C)(C)C
pIC50: < 6.00

QUERY: Query (molecule): `CC(C)(C)c1cc(C#Cc2ccc(NS(C)(=O)=O)cc2Cl)cc(N2CCC(=O)NC2=O)c1` ; field requested: pIC50
RESULT: > 8.00

QUERY: Recorded pIC50 of `COc1ccc(CN(c2ccc(NC(=O)c3cc(N4CCC(=O)NC4=O)cc(C(C)(C)C)c3OC)cc2)S(C)(=O)=O)cc1` , please.
RESULT: < 6.00

QUERY: Name the recorded pIC50 for `COc1c(-c2ncc(-c3cccc([N+](=O)[O-])c3)o2)cc(N2CCC(=O)NC2=O)cc1C(C)(C)C` .
RESULT: < 6.00

###

# TARGET_OR_TEST_SYSTEM: HCV polymerase 1A (Δ21 NS5B, H77) (Hepatitis C virus genotype 1a)
# Construct: 20 to 50 nM Δ21 NS5B
# Sequence (P27958 2421-2990, stated change not applied): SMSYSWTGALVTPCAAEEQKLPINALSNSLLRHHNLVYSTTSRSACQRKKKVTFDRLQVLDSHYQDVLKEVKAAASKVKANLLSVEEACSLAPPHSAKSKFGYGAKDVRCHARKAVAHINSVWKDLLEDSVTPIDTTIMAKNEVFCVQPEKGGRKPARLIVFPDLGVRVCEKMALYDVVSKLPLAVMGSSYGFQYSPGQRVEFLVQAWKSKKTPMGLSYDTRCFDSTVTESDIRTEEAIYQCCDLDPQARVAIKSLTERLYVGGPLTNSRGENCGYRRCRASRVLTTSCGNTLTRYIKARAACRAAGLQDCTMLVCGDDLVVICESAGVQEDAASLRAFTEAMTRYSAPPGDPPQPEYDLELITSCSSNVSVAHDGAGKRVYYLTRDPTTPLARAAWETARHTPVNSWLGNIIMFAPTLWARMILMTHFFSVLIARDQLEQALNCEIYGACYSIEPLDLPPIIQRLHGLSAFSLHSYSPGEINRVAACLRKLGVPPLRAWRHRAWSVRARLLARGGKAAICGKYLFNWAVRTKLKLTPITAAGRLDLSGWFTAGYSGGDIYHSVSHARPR
# ASSAY_COMMENT: biochemical
# CONDITION_LABEL: IC50 1a
pIC50: −log10 of the molar value.
# pIC50 listing for each entry below

Solved entries:
COMPOUND: COc1c(C(=O)Nc2ccc(N(C(C)=O)S(C)(=O)=O)cc2)cc(N2CCC(=O)NC2=O)cc1C(C)(C)C
pIC50: 6.00 to 7.00

COMPOUND: CC(C)(C)c1cc(N2CCC(=O)NC2=O)cc(C(=O)Nc2ccc(NS(=O)(=O)Cc3ccccc3)cc2)c1O
pIC50: 6.00 to 7.00

COMPOUND: COc1c(C(=O)Nc2ccc(NS(C)(=O)=O)cc2)cc(N2CCC(=O)N(CC3OCCO3)C2=O)cc1C(C)(C)C
pIC50: < 6.00

COMPOUND: COc1c(C(=O)Nc2scc(CNS(C)(=O)=O)c2S(N)(=O)=O)cc(N2CCC(=O)NC2=O)cc1C(C)(C)C
pIC50: 7.00 to 8.00

Proceeding to the next compound to report its pIC50.
QUERY: // lookup pIC50 | system=HCV polymerase 1A (Δ21 NS5B, H77) (Hepatitis C virus genotype 1a) | key= COc1c(-c2ccc3c(c2)CCC3O)cc(-n2ccc(=O)[nH]c2=O)cc1C(C)(C)C (centres unmarked)
RESULT: 7.00 to 8.00

###

# System: genotype 1a-H77 subgenomic replicon cell line
# ASSAY_COMMENT: microbe, parasite or virus in culture
# Assay type: cell-based, HCV
# CONDITION_LABEL: Hepatitis C virus, read-out: EC50 1a
pEC50: −log10 of the molar value.
Listed here: items and their measured pEC50.

The following compounds have reported results that may help.
CHEM_SMILES: COCCNC(=O)c1cc(NS(C)(=O)=O)ccc1/C=C/c1cc(-n2ccc(=O)[nH]c2=O)cc(C(C)(C)C)c1OC
RESULT: 7.00 to 8.00
--
CHEM_SMILES: COc1c(C(=O)Nc2ccc(N(C)S(C)(=O)=O)cc2)cc(N2CCC(=O)NC2=O)cc1C(C)(C)C
RESULT: < 6.00
--
CHEM_SMILES: COc1c(C(=O)Nc2ccc(NS(C)(=O)=O)cc2)cc(N2CCC(=O)NC2=O)cc1C(C)(C)C
RESULT: 6.00 to 7.00
--
CHEM_SMILES: COc1c(/C=C(\Cl)c2ccc([N+](=O)[O-])cc2)cc(N2CCC(=O)NC2=O)cc1C(C)(C)C
RESULT: < 6.00

QUERY: Which pEC50 value belongs to `COc1c(-c2ccc3c(c2)CC=C3CNS(C)(=O)=O)cc(-n2ccc(=O)[nH]c2=O)cc1-c1ccco1` ?
RESULT: 6.00 to 7.00

QUERY: Find the recorded pEC50 belonging to `COc1c(-c2cc(F)c(/C=N/NS(C)(=O)=O)c(F)c2)cc(N2CCC(=O)NC2=O)cc1C(C)(C)C` and report it.
RESULT: 6.00 to 7.00

###

Measured pEC50 accompanies every entry in the list below.
# Tested on: genotype 1a-H77 subgenomic replicon cell line
# ASSAY_COMMENT: microbe, parasite or virus in culture
# Format: cell-based, HCV
# CONDITION_LABEL: Hepatitis C virus, read-out: EC50 1a
pEC50: −log10 of the molar value.

QUERY: Quick one: pEC50 for `COc1c(CCc2ccc(NS(C)(=O)=O)cc2)cc(N2CCC(=O)NC2=O)cc1C(C)(C)C` ?
RESULT: 6.00 to 7.00

QUERY: Please give the measured pEC50 for this compound: `COc1c(-c2ccc(/C(C)=N/NS(C)(=O)=O)cc2)cc(N2CCC(=O)NC2=O)cc1C(C)(C)C`
RESULT: 6.00 to 7.00

QUERY: Can you look up the measured pEC50 of `COc1c(/C=C/c2ccc([N+](=O)[O-])cc2)cc(N2CCC(=O)NC2=O)cc1C(C)(C)C` for me?
RESULT: < 6.00

QUERY: Entry `COc1c(C#Cc2ccc(NS(C)(=O)=O)cc2F)cc(N2CCC(=O)NC2=O)cc1C(C)(C)C` : reported pEC50 = ?
RESULT: 7.00 to 8.00
